This collection of values is drawn from ChEMBL document CHEMBL1201862.

Biological target: UniProt:Q15056
Experiment: eIF4H binding inhibition – biochemical, uHTS, fluorescence polarization, translation initiation inhibitor project, primary screen (AID 2012)
Active and inactive are the calls of the source. Cut-off read from the data, not from the text of the source: actives have a measured IC50 and inactives only a lower limit.
Result category, one only: active, inactive

Given CCN1CCN(c2nc3ccccc3nc2C(C#N)C(=O)OCc2ccccc2)CC1 (centres undefined) , state the outcome it received in this test.
active

For CC1=CC(C)C2C(=O)N(CCC[N+](C)(C)C)C(=O)C2C1 (centres undefined) then?
active

Entry to check: "O=C(Nc1cccc2ncccc12)c1ccccc1Cl"
inactive

What about COc1ccc(/C=N/NC2=NC(=O)C(CC(=O)O)S2)cc1OCc1ccc(Cl)cc1Cl (centres undefined) ?
active
